tested on: left ventricle; assay: Cardiotonic effect in wake dogs, left ventricular dp/dt, in relation to isoprenalin; type: in vivo; conditions: Canis lupus familiaris; intravenous, increasing dosage in intervals of ten minutes; wake mongrel dogs; average of two to four individual tests; read-out: ED50 (dosage which achieves one-half of the maximum effect), dp/dt
The label satisfied is reserved for ED50 strictly under 4 µg/kg; not satisfied covers values equal to or above it.

Check out these entries, answers already filled in.
molecule="Cc1cccc(C)c1NCCNCC(O)COc1cccc2[nH]ccc12.O=C(O)O (stereo not shown)" categorylabel=satisfied
molecule="OC(CNCCNc1cccc2c1CCC2)COc1cccc2[nH]ncc12 (stereo not shown)" categorylabel="not satisfied"
molecule="Cc1cccc(C)c1NCCNCC(O)COc1cccc2c1CCN2C=O (stereo not shown)" categorylabel="not satisfied"
molecule="Cc1cccc(C)c1NCCNCC(O)COc1cccc2[nH]nnc12.Cl.Cl (stereo not shown)" categorylabel=satisfied

Consider Cc1cccc(C)c1NCCNCC(O)COc1cccc2[nH]ncc12 (stereo not shown) . Does its ED50 lie strictly below 4 µg/kg?
satisfied

Note, next up: O=[N+]([O-])c1cccc(NCCNCC(O)COc2cccc3[nH]ncc23)c1 (stereo not shown)
satisfied

Lookup Cc1cccc(C)c1NCCCNCC(O)COc1cccc2[nH]ncc12 (stereo not shown)
not satisfied
